tested on: BT-549 breast; assay: NCI-60 one-dose screen, 48 h (100 = growth as untreated, 0 = no growth, -100 = all killed); settings: 10 µM unless noted
About 83,000 compounds went through this panel and 20% of them were active in at least one assay; those are over-represented in the sample as a whole. Activity calls are given as the source filed them. Rule for the calls: active = growth percent below 10; inactive = the rest.
List of growth values.

{"columns": ["Compound", "growth"],
 "data": [
  ["Fc1ccc(NC(c2ccc(F)cc2)C2CCN(CCCCc3ccccc3)CC2)cc1 (stereo not drawn)", "61.1% (inactive)"],
  ["COc1ccc(-c2[nH]c3ccccc3c2-c2ccc(OC)cc2)cc1", "90.9% (inactive)"],
  ["c1ccc(Cc2cccc[n+]2C(c2ccccc2)c2ccccc2)cc1", "29.8% (inactive)"],
  ["O=C1OCC2=C1C(c1cccc(C(F)(F)F)c1)c1cc3c(cc1N2CCO)OCCO3 (stereo not drawn)", "41.7% (inactive)"],
  ["Cc1ccccc1SSc1ccccc1C", "83.9% (inactive)"],
  ["C=C(CNCCO)[C@@H]1CC[C@]2(CO)CC[C@]3(C)[C@H](CC[C@@H]4[C@@]5(C)CCC(NCCc6ccc(O)cc6)C(C)(C)[C@@H]5CC[C@]43C)[C@@H]12 (stereo partly drawn)", "-79.2% (active)"],
  ["C/C=C(\\C)C(=O)N[C@H]1CC[C@]2(C)C3CC[C@@]4(C)C(CC[C@@H]4C(C)N(C)C)C3CCC2[C@H]1OC(C)=O (stereo partly drawn)", "-11% (active)"],
  ["CCN1CCN(C(=O)[C@]23CC[C@@H](C)[C@H](C)[C@@H]2C2=CC[C@@H]4[C@@]5(C)CCC(=O)C(C)(C)[C@@H]5CC[C@@]4(C)[C@]2(C)CC3)CC1", "-26% (active)"],
  ["O=C(c1ccc(Nc2nccc(NCCCNc3ccnc4cc(Cl)ccc34)n2)cc1)N1CCCCC1", "64.9% (inactive)"],
  ["CC(=O)c1c(C)nc(SCC(=O)Nc2ccc(Cl)cc2)n1-c1ccc(Cl)cc1", "92.1% (inactive)"],
  ["C=CCOc1ccc(/C=C2\\SC(=S)N(CCc3ccc(O)cc3)C2=O)cc1", "93.6% (inactive)"],
  ["Cc1ccc(S(=O)(=O)OC[C@@]2(C)CC[C@]3(C)CC[C@]4(C)C(=CC[C@@H]5[C@@]6(C)CCCNC(C)(C)[C@@H]6CC[C@]54C)[C@@H]3C2)cc1", "76.5% (inactive)"],
  ["COc1cc(F)c(/C=C/c2cc(/C=C/c3cc(OC)c(OC)cc3F)n(-c3cc(F)cc(F)c3)n2)cc1OC", "75.5% (inactive)"],
  ["Nc1n[nH]c2cccc(C#Cc3cccc(NC(=O)c4ccc(N5CCOCC5)c(C(F)(F)F)c4)c3)c12", "14.2% (inactive)"],
  ["COCCn1cc(-c2csc(-c3cn(C)c4ccc(F)cc34)n2)c2cccnc21", "63.8% (inactive)"],
  ["Clc1nccc2c(-c3csc(-c4c[nH]c5ccc(Br)cc45)n3)c[nH]c12", "53.2% (inactive)"],
  ["COc1ccc(-c2nc(Cl)c3c(C)nn(-c4ccc(F)cc4)c3n2)cc1", "123% (inactive)"],
  ["Nc1nc(Nc2ccc(F)cc2)nn1C(=O)c1cc(Cl)ccc1Cl", "80% (inactive)"]
]}
